Value source: the supplement of paper PMC6757056

B1: library; a variant is named by its letters at N, in order (parent)
chain: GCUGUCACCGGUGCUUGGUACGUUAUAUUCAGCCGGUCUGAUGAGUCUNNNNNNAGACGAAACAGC

- Variants of: B1
- ASSAY: normalized RNA/DNA level with ligand (relative to sTRSVctl = 100) (log10 (% of sTRSVctl)); HEK293T overexpressing SLC46A1; ligand concentration (+) RNA-Seq: 6 mM; higher = less ribozyme self-cleavage, higher mRNA level
- RUN CONDITIONS: with (6R,S)-folinic acid; ligand present: yes
Each item that follows carries a reported normalized RNA/DNA level with ligand (log10).
MEASURED QUANTITY: normalized RNA/DNA level with ligand (log10)

[
  {
    "CHANGE": "GCCUUC",
    "OBSERVED MEASUREMENT": 2.06
  },
  {
    "CHANGE": "GACACU",
    "OBSERVED MEASUREMENT": 2.05
  },
  {
    "CHANGE": "UCGUCU",
    "OBSERVED MEASUREMENT": 2.04
  },
  {
    "CHANGE": "CAUCCA",
    "OBSERVED MEASUREMENT": 1.99
  },
  {
    "CHANGE": "CCCCAC",
    "OBSERVED MEASUREMENT": 2.05
  },
  {
    "CHANGE": "GUGGCU",
    "OBSERVED MEASUREMENT": 2.06
  },
  {
    "CHANGE": "GAUAGC",
    "OBSERVED MEASUREMENT": 2.02
  },
  {
    "CHANGE": "UUAAAG",
    "OBSERVED MEASUREMENT": 1.94
  },
  {
    "CHANGE": "GCGUCC",
    "OBSERVED MEASUREMENT": 2
  },
  {
    "CHANGE": "GGUAGA",
    "OBSERVED MEASUREMENT": 2.01
  },
  {
    "CHANGE": "GAGCUC",
    "OBSERVED MEASUREMENT": 2.05
  },
  {
    "CHANGE": "ACUAGG",
    "OBSERVED MEASUREMENT": 1.99
  },
  {
    "CHANGE": "ACGCAA",
    "OBSERVED MEASUREMENT": 2.01
  },
  {
    "CHANGE": "AAAGCU",
    "OBSERVED MEASUREMENT": 2.01
  },
  {
    "CHANGE": "CGCUCU",
    "OBSERVED MEASUREMENT": 2.06
  },
  {
    "CHANGE": "CUGCCG",
    "OBSERVED MEASUREMENT": 2.08
  },
  {
    "CHANGE": "GCGUUC",
    "OBSERVED MEASUREMENT": 2.03
  },
  {
    "CHANGE": "GCUCAA",
    "OBSERVED MEASUREMENT": 1.99
  },
  {
    "CHANGE": "ACAUGA",
    "OBSERVED MEASUREMENT": 2.03
  },
  {
    "CHANGE": "GACGUG",
    "OBSERVED MEASUREMENT": 2.01
  },
  {
    "CHANGE": "AAGGAC",
    "OBSERVED MEASUREMENT": 1.99
  },
  {
    "CHANGE": "AUAGCC",
    "OBSERVED MEASUREMENT": 2.03
  },
  {
    "CHANGE": "CUAGCA",
    "OBSERVED MEASUREMENT": 2.04
  },
  {
    "CHANGE": "AACGAA",
    "OBSERVED MEASUREMENT": 1.99
  },
  {
    "CHANGE": "AAAUGC",
    "OBSERVED MEASUREMENT": 2.03
  },
  {
    "CHANGE": "GACGCC",
    "OBSERVED MEASUREMENT": 2.03
  },
  {
    "CHANGE": "UUCCAC",
    "OBSERVED MEASUREMENT": 1.99
  },
  {
    "CHANGE": "GCAUCU",
    "OBSERVED MEASUREMENT": 2.04
  },
  {
    "CHANGE": "ACUAGA",
    "OBSERVED MEASUREMENT": 2.01
  },
  {
    "CHANGE": "CGAUGA",
    "OBSERVED MEASUREMENT": 2.02
  },
  {
    "CHANGE": "CAAUAC",
    "OBSERVED MEASUREMENT": 1.97
  },
  {
    "CHANGE": "ACCCAC",
    "OBSERVED MEASUREMENT": 2
  },
  {
    "CHANGE": "CUACCU",
    "OBSERVED MEASUREMENT": 2.01
  },
  {
    "CHANGE": "CUACCG",
    "OBSERVED MEASUREMENT": 2.05
  },
  {
    "CHANGE": "CGCCAG",
    "OBSERVED MEASUREMENT": 2
  },
  {
    "CHANGE": "GCUUUU",
    "OBSERVED MEASUREMENT": 2.02
  },
  {
    "CHANGE": "AAUUGG",
    "OBSERVED MEASUREMENT": 2
  },
  {
    "CHANGE": "GCUCUC",
    "OBSERVED MEASUREMENT": 2.08
  },
  {
    "CHANGE": "AGAGUU",
    "OBSERVED MEASUREMENT": 2.01
  },
  {
    "CHANGE": "CGCAAA",
    "OBSERVED MEASUREMENT": 1.99
  },
  {
    "CHANGE": "AGUCCU",
    "OBSERVED MEASUREMENT": 2.05
  },
  {
    "CHANGE": "GUAACG",
    "OBSERVED MEASUREMENT": 2
  },
  {
    "CHANGE": "UCAAUA",
    "OBSERVED MEASUREMENT": 1.98
  },
  {
    "CHANGE": "AGGGAA",
    "OBSERVED MEASUREMENT": 2.01
  },
  {
    "CHANGE": "GCAACC",
    "OBSERVED MEASUREMENT": 2.02
  },
  {
    "CHANGE": "UAUCAC",
    "OBSERVED MEASUREMENT": 1.99
  },
  {
    "CHANGE": "ACCACG",
    "OBSERVED MEASUREMENT": 2.06
  },
  {
    "CHANGE": "CCUGUU",
    "OBSERVED MEASUREMENT": 2.02
  },
  {
    "CHANGE": "UUACCA",
    "OBSERVED MEASUREMENT": 2.03
  },
  {
    "CHANGE": "CUUCCU",
    "OBSERVED MEASUREMENT": 2.02
  },
  {
    "CHANGE": "GGUCAA",
    "OBSERVED MEASUREMENT": 2
  },
  {
    "CHANGE": "GUCUAU",
    "OBSERVED MEASUREMENT": 2.02
  },
  {
    "CHANGE": "AGUUCC",
    "OBSERVED MEASUREMENT": 2.04
  },
  {
    "CHANGE": "GCCUAU",
    "OBSERVED MEASUREMENT": 2.07
  },
  {
    "CHANGE": "AAGAUG",
    "OBSERVED MEASUREMENT": 2
  },
  {
    "CHANGE": "UUGGCC",
    "OBSERVED MEASUREMENT": 2.03
  },
  {
    "CHANGE": "UCGAAC",
    "OBSERVED MEASUREMENT": 2.01
  },
  {
    "CHANGE": "GUUUUA",
    "OBSERVED MEASUREMENT": 2.02
  },
  {
    "CHANGE": "UUCGGC",
    "OBSERVED MEASUREMENT": 2.04
  },
  {
    "CHANGE": "UUUUAA",
    "OBSERVED MEASUREMENT": 2.03
  },
  {
    "CHANGE": "CCCAAG",
    "OBSERVED MEASUREMENT": 1.99
  },
  {
    "CHANGE": "AUAUAA",
    "OBSERVED MEASUREMENT": 1.96
  },
  {
    "CHANGE": "GGCCAA",
    "OBSERVED MEASUREMENT": 2.02
  },
  {
    "CHANGE": "GACUCG",
    "OBSERVED MEASUREMENT": 2.05
  },
  {
    "CHANGE": "CAACGG",
    "OBSERVED MEASUREMENT": 1.98
  },
  {
    "CHANGE": "GCCCGG",
    "OBSERVED MEASUREMENT": 2.02
  },
  {
    "CHANGE": "AUAUAC",
    "OBSERVED MEASUREMENT": 2
  },
  {
    "CHANGE": "AGAUUU",
    "OBSERVED MEASUREMENT": 2.04
  },
  {
    "CHANGE": "GAGAUC",
    "OBSERVED MEASUREMENT": 2
  },
  {
    "CHANGE": "CCUCUC",
    "OBSERVED MEASUREMENT": 2.04
  },
  {
    "CHANGE": "CUGCAG",
    "OBSERVED MEASUREMENT": 1.98
  },
  {
    "CHANGE": "GCACUG",
    "OBSERVED MEASUREMENT": 2.02
  },
  {
    "CHANGE": "UCUCAC",
    "OBSERVED MEASUREMENT": 2.04
  },
  {
    "CHANGE": "GCCGCA",
    "OBSERVED MEASUREMENT": 2.04
  },
  {
    "CHANGE": "GAAACC",
    "OBSERVED MEASUREMENT": 2.03
  },
  {
    "CHANGE": "AUACCG",
    "OBSERVED MEASUREMENT": 2.04
  },
  {
    "CHANGE": "UUUCUC",
    "OBSERVED MEASUREMENT": 2.06
  },
  {
    "CHANGE": "GCCUCA",
    "OBSERVED MEASUREMENT": 2.05
  },
  {
    "CHANGE": "CGGGUA",
    "OBSERVED MEASUREMENT": 1.97
  },
  {
    "CHANGE": "AUGCAC",
    "OBSERVED MEASUREMENT": 2.01
  },
  {
    "CHANGE": "AAUCAG",
    "OBSERVED MEASUREMENT": 2.02
  },
  {
    "CHANGE": "UGAUCA",
    "OBSERVED MEASUREMENT": 2
  },
  {
    "CHANGE": "CUCGUC",
    "OBSERVED MEASUREMENT": 2.12
  },
  {
    "CHANGE": "UCCGGC",
    "OBSERVED MEASUREMENT": 2.02
  },
  {
    "CHANGE": "GGACGC",
    "OBSERVED MEASUREMENT": 1.96
  },
  {
    "CHANGE": "GAGACC",
    "OBSERVED MEASUREMENT": 2.04
  },
  {
    "CHANGE": "UAGAUA",
    "OBSERVED MEASUREMENT": 2.01
  },
  {
    "CHANGE": "UGUACA",
    "OBSERVED MEASUREMENT": 2
  },
  {
    "CHANGE": "UUGCAC",
    "OBSERVED MEASUREMENT": 2.02
  },
  {
    "CHANGE": "AGAAUC",
    "OBSERVED MEASUREMENT": 2.05
  },
  {
    "CHANGE": "UAGAUC",
    "OBSERVED MEASUREMENT": 2.06
  }
]
